Activity reference
# Test system: Thoracic aorta
# TEST: Vasodilation activity against KCl-induced Sprague-Dawley rat thoracic aorta vessels contraction at 5 uM
# Assay type: functional
Express the result in % but write the number alone.

Below are worked cases with known answers.
1. C=C[C@]1(C)CC[C@@H](C(=C)COC(=O)c2ccccc2C(=O)OCCOc2ccc(-c3cc(=S)ss3)cc2)C[C@H]1C(=C)C = 10.01
2. C=C[C@]1(C)CC[C@@H](C(=C)COC(=O)CCCCCC(=O)Oc2ccc(-c3nc(=O)ss3)cc2)C[C@H]1C(=C)C = 4.76
3. C=C[C@]1(C)CC[C@@H](C(=C)COC(=O)C(NC(=O)CCC(=O)OCCOc2ccc(-c3cc(=S)ss3)cc2)C(C)CC)C[C@H]1C(=C)C (some centres undefined) = 3.38

# ---- query molecule ----
## Task Item C=C[C@]1(C)CC[C@@H](C(=C)COCCCCOc2ccc(C(N)=S)cc2)C[C@H]1C(=C)C has what recorded Activity?
## Result 4.13

Data credit: ChEMBL document CHEMBL5357041
